Experiment: in vivo
Parameters: species or system mice
Settings: male, NOD.Cg-Rag1tm1Mom Il2rgtm1Wjl/SzJ (NRG), mouse, iv, total radioactivity, Biodistribution: Kidneys
Where a SMILES comes first, the peptide text is derived from it. Bridges are numbered along the chain shown (N, C = ends). [ ]: non-standard residue; d: D form. The star is where a group is joined. X3 = O=C(O)CN1CCN(CC(=O)O)CCN(CC(=O)N[C@@H](CS(=O)(=O)O)C(=O)N[C@@H](CCCCNC(=O)CCCc2ccc(Br)cc2)C(=O)*)CCN(CC(=O)O)CC1; X1 = O=C(O)CN1CCN(CC(=O)O)CCN(CC(=O)N[C@@H](CS(=O)(=O)O)C(=O)N[C@@H](CCCCNC(=O)CCCc2ccc(I)cc2)C(=O)*)CCN(CC(=O)O)CC1; 2Nal = N[C@@H](Cc1ccc2ccccc2c1)C(=O)O; Lys(iPr) = CC(C)NCCCC[C@H](N)C(=O)O
Measured tissue uptake at 120 h by item
Reply with just the number (in %ID/g).

CC(C)NCCCC[C@H](NC(=O)[C@H]1CCC(=O)N[C@@H](CCCCNC(=O)[C@H](CCCCNC(=O)CCCc2ccc(Br)cc2)NC(=O)[C@H](CS(=O)(=O)O)NC(=O)CN2CCN(CC(=O)O)CCN(CC(=O)O)CCN(CC(=O)O)CC2)C(=O)N[C@@H](Cc2ccc(O)cc2)C(=O)N[C@@H](CCCCNC(C)C)C(=O)N[C@H](CCCNC(=N)N)C(=O)N[C@@H](Cc2ccc3ccccc3c2)C(=O)N[C@H](C)C(=O)N1)C(N)=O [[^177Lu]Lu-BL34L20, metal not drawn] (K(X3)Y[Lys(iPr)][dR][2Nal][dA][dE][Lys(iPr)]-NH2; lactam N-7); 0.33

Challenge: Could you tell me which tissue uptake at 120 h is on file for CC(C)NCCCC[C@H](NC(=O)[C@H]1CCC(=O)N[C@@H](CCCCNC(=O)[C@H](CCCCNC(=O)CCCc2ccc(I)cc2)NC(=O)[C@H](CS(=O)(=O)O)NC(=O)CN2CCN(CC(=O)O)CCN(CC(=O)O)CCN(CC(=O)O)CC2)C(=O)N[C@@H](Cc2ccc(O)cc2)C(=O)N[C@@H](CCCCNC(C)C)C(=O)N[C@H](CCCNC(=N)N)C(=O)N[C@@H](Cc2ccc3ccccc3c2)C(=O)N[C@H](C)C(=O)N1)C(N)=O [[^177Lu]Lu-BL34L11, metal not drawn] (K(X1)Y[Lys(iPr)][dR][2Nal][dA][dE][Lys(iPr)]-NH2; lactam N-7) ?
Response given: 0.75

The origin of these recorded values is patent US20250242064A1.
